- targetSystem: kallikrein
- protocolSummary: enzyme inhibition kinetics, chromogenic substrate, OD 405 nm
measuredAttribute: Ki
In your response, put the unit directly after the numeric value.

Q: Determine its reported Ki: TSEPVCACPKMLFWVCGKDGETYTHPCIAKCHNVEVEHDGKCK (modifications not checked) [Haemadipsa sylvestris antithrombotic peptide Sylvestin]
Ans: 17.8 nM

Data origin, for the record: patent US20190284258A1
